# Target: T1, TJP3_3, O95049
# T1 sequence (O95049 375-456, limits assumed, looked up): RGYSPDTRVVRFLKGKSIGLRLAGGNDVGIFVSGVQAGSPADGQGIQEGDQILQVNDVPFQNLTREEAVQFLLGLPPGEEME
# Experiment summary: holdup assay
# Design: key: below the threshold = too weak to quantify, mostly under pKd 3.1 to 4
# Test settings: plain residues with an end cap or a label only (N-terminal biotin on a linker: ado-ado)
Measurement type: pKd

Binder: QKNKDKEYYV [NRXN3_rs746444206, Q9Y4C0]
pKd: 3.86

Binder: EEPEERHTEL [CES2, O00748]
pKd: below the threshold

Binder: FVHPILQSAV [PRKCA, P17252]
pKd: below the threshold

Binder: TETASVCTKV [SLC23A1, Q9UHI7]
pKd: below the threshold

Switching to the query record.
Input line: Look at this binder and give its reported pKd. GFGEERESIL [KIDINS220, Q9ULH0]
Output line: below the threshold
